Molecular target: UniProtKB P47871
Sequence (P47871 whole entry): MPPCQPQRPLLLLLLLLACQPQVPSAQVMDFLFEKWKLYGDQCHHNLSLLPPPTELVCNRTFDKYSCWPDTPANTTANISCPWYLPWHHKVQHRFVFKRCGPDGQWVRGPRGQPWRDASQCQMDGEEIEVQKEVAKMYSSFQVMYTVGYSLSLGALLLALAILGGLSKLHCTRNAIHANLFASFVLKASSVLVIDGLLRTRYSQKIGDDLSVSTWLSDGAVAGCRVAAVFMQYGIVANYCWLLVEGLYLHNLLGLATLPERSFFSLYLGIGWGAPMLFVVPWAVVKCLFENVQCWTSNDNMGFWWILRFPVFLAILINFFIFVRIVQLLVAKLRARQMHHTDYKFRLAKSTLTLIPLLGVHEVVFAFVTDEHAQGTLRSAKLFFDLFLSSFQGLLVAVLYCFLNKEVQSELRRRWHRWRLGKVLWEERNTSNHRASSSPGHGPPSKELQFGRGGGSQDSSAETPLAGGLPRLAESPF
Assay: biochemical
Type: cell-based, CHO
Description: Displacement of [125I]-glucagon from recombinant human GCGR expressed in CHO cells after 60 mins by scintillation counting analysis
In this section we review reported IC50 values for a set of compounds.
RECORDED_ENDPOINT: IC50 (µM)

INSERT INTO results (compound, recorded_endpoint, quantitative_readout) VALUES
  ('CC(C)(C)[C@H]1CC[C@]2(CC1)N=C(c1cccc(Cl)c1)C(=O)N2Cc1ccc(C(=O)NCCC(=O)O)cc1', 'IC50', 0.77),
  ('C[C@H](c1ccc(C(=O)NCCC(=O)O)cc1)N1C(=O)C(c2cccc(Cl)c2F)=N[C@]12CC[C@@H](C(C)(C)C)CC2', 'IC50', 0.62),
  ('CC(C)(C)CC[C@H](c1ccc(C(=O)NCc2nn[nH]n2)cc1)N1C(=O)C(c2ccc(F)cc2)=N[C@]12CC[C@@H](C(C)(C)C)CC2', 'IC50', 0.013),
  ('CCCCC[C@H](c1ccc(C(=O)NCc2nn[nH]n2)cc1)N1C(=O)C(c2cc(Cl)cc(Cl)c2)=N[C@]12CC[C@@H](C(C)(C)C)CC2', 'IC50', 0.024),
  ('CC1(CC[C@H](c2ccc(C(=O)NCc3nn[nH]n3)cc2)N2C(=O)C(c3cc(Cl)cc(Cl)c3)=N[C@]23CC[C@@H](C(C)(C)C)CC3)CC1', 'IC50', 0.017),
  ('CC(C)C[C@H](c1ccc(C(=O)NCc2nn[nH]n2)cc1)N1C(=O)C(c2cc(Cl)cc(Cl)c2)=N[C@]12CC[C@@H](C(C)(C)C)CC2', 'IC50', 0.015),
  ('CC(C)(C)CC[C@H](c1ccc(C(=O)NCCC(=O)O)cc1)N1C(=O)C(c2cc(Cl)cc(Cl)c2)=N[C@]12CC[C@@H](C(C)(C)C)CC2', 'IC50', 0.016),
  ('CC(C)(C)CC[C@H](c1ccc(C(=O)NC[C@H](O)C(=O)O)cc1)N1C(=O)C(c2cc(Cl)cc(Cl)c2)=N[C@]12CC[C@@H](C(C)(C)C)CC2', 'IC50', 0.086),
  ('CC(C)(C)CC[C@H](c1ccc(C(=O)NC[C@@H](O)C(=O)O)cc1)N1C(=O)C(c2cc(Cl)cc(Cl)c2)=N[C@]12CC[C@@H](C(C)(C)C)CC2 (mixture of isomers)', 'IC50', 0.149),
  ('CC(C)(C)CC[C@H](c1ccc(C(=O)NCc2nn[nH]n2)cc1)N1C(=O)C(c2cccc(F)c2)=N[C@]12CC[C@@H](C(C)(C)C)CC2', 'IC50', 0.021),
  ('C[C@H](c1ccc(C(=O)NCCC(=O)O)cc1)N1C(=O)C(c2cc(Cl)ccc2F)=N[C@]12CC[C@@H](C(C)(C)C)CC2', 'IC50', 0.34),
  ('CC(C)(C)CC[C@H](c1ccc(C(=O)NCc2nn[nH]n2)cc1)N1C(=O)C(c2cc(F)cc(F)c2)=N[C@]12CC[C@@H](C(C)(C)C)CC2', 'IC50', 0.023),
  ('C[C@H](c1ccc(C(=O)NCCC(=O)O)cc1)N1C(=O)C(c2cccc(C3CC3)c2)=N[C@]12CC[C@@H](C(C)(C)C)CC2', 'IC50', 0.056),
  ('CC[C@H](c1ccc(C(=O)NCc2nn[nH]n2)cc1)N1C(=O)C(c2cc(Cl)cc(Cl)c2)=N[C@]12CC[C@@H](C(C)(C)C)CC2', 'IC50', 0.082),
  ('C[C@H](c1ccc(C(=O)NCCC(=O)O)cc1)N1C(=O)C(c2ccc(F)c(Cl)c2)=N[C@]12CC[C@@H](C(C)(C)C)CC2', 'IC50', 0.044);

Values from ChEMBL document CHEMBL3232855
